B1: Pre-mRNA-processing factor 40 homolog B, residues 274 to 332; numbered along this chain, Q6NWY9 (parent)
chain: SNREKAKQAFKELLRDKAVPSNASWEQAMKMVVTDPRYSALPKLSEKKQAFNAYKAQRE

Variants of: B1
experiment: abundance fitness (aPCA) (normalised: wild type 0, dead -1); higher = more abundant; growth selection in yeast, the domain comes from the species named
particulars: Homo sapiens
property: abundance fitness

{"variant.designation": "Q49T", "property": "abundance fitness", "reported.value": -0.364}
{"variant.designation": "E12S", "property": "abundance fitness", "reported.value": -0.283}
{"variant.designation": "K17T", "property": "abundance fitness", "reported.value": -0.429}
{"variant.designation": "L44M", "property": "abundance fitness", "reported.value": -0.087}
{"variant.designation": "R37Y", "property": "abundance fitness", "reported.value": -1.25}
{"variant.designation": "Q8T", "property": "abundance fitness", "reported.value": -0.065}
{"variant.designation": "A18T", "property": "abundance fitness", "reported.value": -0.282}
{"variant.designation": "K47I", "property": "abundance fitness", "reported.value": -0.972}
{"variant.designation": "R15S", "property": "abundance fitness", "reported.value": -0.214}
{"variant.designation": "A6T", "property": "abundance fitness", "reported.value": -0.394}
{"variant.designation": "A28S", "property": "abundance fitness", "reported.value": -0.413}
{"variant.designation": "S45L", "property": "abundance fitness", "reported.value": -0.541}
{"variant.designation": "L13D", "property": "abundance fitness", "reported.value": -0.262}
{"variant.designation": "A53D", "property": "abundance fitness", "reported.value": 0.042}
{"variant.designation": "N2L", "property": "abundance fitness", "reported.value": -0.581}
{"variant.designation": "A53I", "property": "abundance fitness", "reported.value": -0.372}
{"variant.designation": "K7Q", "property": "abundance fitness", "reported.value": 0.062}
{"variant.designation": "K55D", "property": "abundance fitness", "reported.value": -0.29}
{"variant.designation": "D35M", "property": "abundance fitness", "reported.value": -0.699}
{"variant.designation": "A18N", "property": "abundance fitness", "reported.value": -0.067}
{"variant.designation": "K11L", "property": "abundance fitness", "reported.value": 0.159}
{"variant.designation": "V19Q", "property": "abundance fitness", "reported.value": -0.383}
{"variant.designation": "A50N", "property": "abundance fitness", "reported.value": -0.629}
{"variant.designation": "K43T", "property": "abundance fitness", "reported.value": 0.206}
{"variant.designation": "N2D", "property": "abundance fitness", "reported.value": 0.033}
{"variant.designation": "Q8I", "property": "abundance fitness", "reported.value": -0.069}
{"variant.designation": "D16Q", "property": "abundance fitness", "reported.value": -0.443}
{"variant.designation": "T34L", "property": "abundance fitness", "reported.value": -0.358}
{"variant.designation": "M31C", "property": "abundance fitness", "reported.value": -0.422}
{"variant.designation": "A53F", "property": "abundance fitness", "reported.value": -0.835}
{"variant.designation": "S39M", "property": "abundance fitness", "reported.value": -0.053}
{"variant.designation": "E4M", "property": "abundance fitness", "reported.value": -0.41}
{"variant.designation": "K17S", "property": "abundance fitness", "reported.value": -0.365}
{"variant.designation": "D35I", "property": "abundance fitness", "reported.value": -0.94}
{"variant.designation": "A28G", "property": "abundance fitness", "reported.value": -0.48}
{"variant.designation": "D35L", "property": "abundance fitness", "reported.value": -0.853}
{"variant.designation": "V32P", "property": "abundance fitness", "reported.value": -0.439}
{"variant.designation": "S1C", "property": "abundance fitness", "reported.value": 0.042}
{"variant.designation": "Y38F", "property": "abundance fitness", "reported.value": -0.02}
{"variant.designation": "T34M", "property": "abundance fitness", "reported.value": -0.071}
{"variant.designation": "E46D", "property": "abundance fitness", "reported.value": 0.027}
{"variant.designation": "A56S", "property": "abundance fitness", "reported.value": -0.016}
{"variant.designation": "S24N", "property": "abundance fitness", "reported.value": -0.447}
{"variant.designation": "D35F", "property": "abundance fitness", "reported.value": -0.951}
{"variant.designation": "R15D", "property": "abundance fitness", "reported.value": -0.238}
{"variant.designation": "M29S", "property": "abundance fitness", "reported.value": -0.136}
{"variant.designation": "V33W", "property": "abundance fitness", "reported.value": 0.012}
{"variant.designation": "Q49E", "property": "abundance fitness", "reported.value": 0.294}
{"variant.designation": "K55E", "property": "abundance fitness", "reported.value": -0.333}
{"variant.designation": "A56G", "property": "abundance fitness", "reported.value": -0.242}
{"variant.designation": "D16A", "property": "abundance fitness", "reported.value": -0.461}
{"variant.designation": "P36V", "property": "abundance fitness", "reported.value": -0.353}
{"variant.designation": "A40G", "property": "abundance fitness", "reported.value": -0.206}
{"variant.designation": "L14D", "property": "abundance fitness", "reported.value": -0.504}
{"variant.designation": "Y38W", "property": "abundance fitness", "reported.value": -0.085}
{"variant.designation": "N22E", "property": "abundance fitness", "reported.value": 0.03}
{"variant.designation": "K55Q", "property": "abundance fitness", "reported.value": -0.239}
{"variant.designation": "E12L", "property": "abundance fitness", "reported.value": -0.632}
{"variant.designation": "P36M", "property": "abundance fitness", "reported.value": -0.607}
{"variant.designation": "K7E", "property": "abundance fitness", "reported.value": 0.135}
{"variant.designation": "R37A", "property": "abundance fitness", "reported.value": -0.223}
{"variant.designation": "A28E", "property": "abundance fitness", "reported.value": -0.431}
{"variant.designation": "W25D", "property": "abundance fitness", "reported.value": -0.114}
{"variant.designation": "K11F", "property": "abundance fitness", "reported.value": 0.061}
{"variant.designation": "K5V", "property": "abundance fitness", "reported.value": -0.063}
{"variant.designation": "V19H", "property": "abundance fitness", "reported.value": -0.938}
{"variant.designation": "A6Q", "property": "abundance fitness", "reported.value": 0.009}
{"variant.designation": "E46L", "property": "abundance fitness", "reported.value": -0.73}
{"variant.designation": "W25I", "property": "abundance fitness", "reported.value": -0.251}
{"variant.designation": "Y38V", "property": "abundance fitness", "reported.value": -0.38}
{"variant.designation": "Q57T", "property": "abundance fitness", "reported.value": -0.165}
{"variant.designation": "K48I", "property": "abundance fitness", "reported.value": -0.047}
{"variant.designation": "A18D", "property": "abundance fitness", "reported.value": 0.045}
{"variant.designation": "A53V", "property": "abundance fitness", "reported.value": -0.274}
{"variant.designation": "N52R", "property": "abundance fitness", "reported.value": -0.053}
{"variant.designation": "S24E", "property": "abundance fitness", "reported.value": -0.306}
{"variant.designation": "Y38K", "property": "abundance fitness", "reported.value": -0.217}

Where these numbers come from: the Human Domainome abundance scans (Beltran et al. 2025)
